procedure.summary: Half life in human MES-SA cells up to 100 uM by HPLC analysis
Format: ADME, cell-based
A collection of molecules and their measured half-life
Answer with a number only, understood to be in h.

So what's the measured half-life for this one? `O=C(O)CC[C@H](NCCOc1cc(O)c2c(=O)c(O)c(-c3ccc(O)c(O)c3)oc2c1)C(=O)O`
56

Now take the following molecule into account.
For the molecule shown here, `O=C(O)CC[C@H](NC(=O)COc1cc(O)c2c(=O)c(O)c(-c3ccc(O)c(O)c3)oc2c1)C(=O)O` , give the reported half-life.
30

====

procedure.summary: Inhibition of P-gp in human MES-SA/Dx5 cells assessed as potentiation of paclitaxel-induced cytotoxicity by measuring compound concentration required for reduction of paclitaxel IC50 by half after 72 hrs by MTT assay
Assay type: cell-based
experimental.setup: MES-SA/Dx5, 72 h
quantity.kind: EC50 (nM)
Give the quantity in nM, number only.

Any idea what its EC50 is? The molecule is `O=C(O)CC[C@H](NC(=O)COc1cc(O)c2c(=O)c(O)c(-c3ccc(O)c(O)c3)oc2c1)C(=O)O`
2100

Below: the item to evaluate.
Which EC50 value belongs to `O=C(O)CC[C@H](NCCOc1cc(O)c2c(=O)c(O)c(-c3ccc(O)c(O)c3)oc2c1)C(=O)O` ?
2500
